Target Entity: T1, MurineB7-H4 (Mus musculus, UniProt Q7TSP5)
T1 construct: Mouse B7H4 ECD; FLAG (C); 10His (C); made in house
T1 sequence (Q7TSP5 25-257 limits assumed): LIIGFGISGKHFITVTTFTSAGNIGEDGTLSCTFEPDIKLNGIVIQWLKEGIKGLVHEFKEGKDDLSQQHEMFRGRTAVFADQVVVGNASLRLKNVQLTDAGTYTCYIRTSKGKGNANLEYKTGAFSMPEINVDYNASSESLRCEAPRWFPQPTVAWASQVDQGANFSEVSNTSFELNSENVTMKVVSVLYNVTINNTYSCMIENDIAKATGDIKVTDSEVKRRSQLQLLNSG
Assay Explanation: ForteBio Octet affinity
Assay type: binding, murine
Condition Notes: hIgG1-TM (n = 4-7)
Friendly reminder: kon below 20000 M⁻¹ s⁻¹ is TRUE, at or above is FALSE.

Molecule	Category Label
ZY0EPQ-E02: anti-B7-H4 antibody clone, VH SEQ ID NO: 31, VL SEQ ID NO: 32 (antibody, V domains shown) VH: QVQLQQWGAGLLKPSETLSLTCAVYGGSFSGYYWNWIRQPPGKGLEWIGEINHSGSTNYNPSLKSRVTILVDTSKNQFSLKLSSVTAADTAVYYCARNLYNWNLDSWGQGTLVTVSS VL: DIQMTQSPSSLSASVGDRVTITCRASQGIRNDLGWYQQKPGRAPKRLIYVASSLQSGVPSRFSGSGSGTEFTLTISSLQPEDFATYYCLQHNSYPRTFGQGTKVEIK	FALSE
ZY0EP0-C07: anti-B7-H4 antibody clone, VH SEQ ID NO: 39, VL SEQ ID NO: 40 (antibody, V domains shown) VH: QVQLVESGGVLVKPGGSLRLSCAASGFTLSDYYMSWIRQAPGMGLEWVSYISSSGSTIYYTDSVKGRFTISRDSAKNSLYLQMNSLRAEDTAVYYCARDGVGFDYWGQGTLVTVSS VL: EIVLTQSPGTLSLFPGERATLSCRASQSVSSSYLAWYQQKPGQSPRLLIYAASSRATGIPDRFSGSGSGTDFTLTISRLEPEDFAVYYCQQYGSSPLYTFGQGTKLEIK	FALSE
ZY0EQD-E02: anti-B7-H4 antibody clone, VH SEQ ID NO: 33, VL SEQ ID NO: 34 (antibody, V domains shown) VH: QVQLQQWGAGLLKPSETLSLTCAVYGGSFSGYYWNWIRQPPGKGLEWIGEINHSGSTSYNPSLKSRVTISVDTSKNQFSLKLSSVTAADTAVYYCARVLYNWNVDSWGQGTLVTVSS VL: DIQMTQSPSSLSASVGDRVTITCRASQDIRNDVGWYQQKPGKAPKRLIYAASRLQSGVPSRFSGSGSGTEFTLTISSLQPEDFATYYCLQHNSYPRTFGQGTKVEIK	FALSE
ZY0EOB-F05: anti-B7-H4 antibody clone, VH SEQ ID NO: 35, VL SEQ ID NO: 36 (antibody, V domains shown) VH: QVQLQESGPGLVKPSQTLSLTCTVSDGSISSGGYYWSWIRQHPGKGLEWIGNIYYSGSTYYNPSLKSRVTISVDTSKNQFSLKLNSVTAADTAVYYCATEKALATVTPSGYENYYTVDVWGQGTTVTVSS VL: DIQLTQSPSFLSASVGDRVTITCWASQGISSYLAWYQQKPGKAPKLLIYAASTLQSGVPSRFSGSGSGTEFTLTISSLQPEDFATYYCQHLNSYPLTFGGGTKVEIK	TRUE
ZY0E05-E07: anti-B7-H4 antibody clone, VH SEQ ID NO: 37, VL SEQ ID NO: 38 (antibody, V domains shown) VH: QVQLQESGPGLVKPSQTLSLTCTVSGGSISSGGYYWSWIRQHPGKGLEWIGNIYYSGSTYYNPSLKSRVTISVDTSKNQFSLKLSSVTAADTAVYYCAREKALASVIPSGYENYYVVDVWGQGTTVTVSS VL: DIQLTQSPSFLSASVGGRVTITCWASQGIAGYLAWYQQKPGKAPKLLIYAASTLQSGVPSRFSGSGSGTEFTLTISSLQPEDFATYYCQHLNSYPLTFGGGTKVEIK	TRUE
